System: MCF7 breast
assay_procedure: NCI tumour cell line growth inhibition, 48 h
Overview of reported TGI across a group of molecules:
Please reply with the bare figure in µM and do not write the unit itself.

| molecule | TGI [µM] |
| --- | --- |
| CCCCCCCCCCCCCCCCCCNC(=O)[C@H]1CSC(c2ccc(OC)c(F)c2)N1 (stereo partly drawn) | 1.4 |

Q: Query (molecule): CCC1(OC(=O)CN2CCN(CCO)CC2)C(=O)OCc2c1cc1n(c2=O)Cc2cc3ccccc3nc2-1 (stereo not drawn) ; field requested: TGI
A: 2.18

Q: What TGI value was documented for this molecule, COc1cc([C@@H]2c3cc4c(cc3[C@H](OC3OC5COC(C(C)C)OC5C(O)C3O)C3COC(=O)[C@@H]32)OCO4)cc(OC)c1O (stereo partly drawn) ?
A: 16

Q: Value lookup for TGI; key = COc1cc2c(cc1OC)C(=O)C(Br)CC2 (stereo not drawn)
A: 13.7

Q: Recorded TGI of "O/N=c1/ccn(O)c2ccccc12" , please.
A: 7.49

====

System: HT29 colon
assay_procedure: NCI tumour cell line growth inhibition, 48 h
property_measured: TGI

Sample answers from the record:
| molecule | result |
| --- | --- |
| COC(=O)Nc1nc2ccc(C(=O)c3ccc[nH]3)cc2[nH]1 | > 100 µM |
| Cc1cc2nc(N3C(=O)/C(=C/c4cccc([N+](=O)[O-])c4)N=C3c3ccccc3)sc2cc1C | 75.9 µM |
| Cc1cccc(/C=N/NC(=S)NCc2ccccn2)n1 | > 100 µM |
| COc1cc(-c2cc(C(=O)N3CCN(C(=O)c4ccccc4NCc4ccco4)CC3)nc3cc(-c4ccccc4)nn23)cc(OC)c1OC | 10.7 µM |
| CC(=O)OCC1OC(Nc2ccc3nc(C)n(-c4cccc(C)c4)c(=O)c3c2)C(OC(C)=O)C(OC(C)=O)C1OC(C)=O (configuration not stated) | > 62.5 µM |

Q: Observed TGI on HT29 colon for CC(=O)OC1/C(=C/c2ccc([N+](=O)[O-])cc2)C[C@H]2[C@@H]3CC=C4C[C@@H](OC(C)=O)CC[C@]4(C)[C@H]3CC[C@]12C (some centres not stated) , please.
A: > 100 µM

Q: Give HT29 colon TGI for "CC(=O)c1ccc(Nc2cc(-n3ccnc3)nc3ccccc23)cc1"
A: > 100 µM

Q: What reported TGI corresponds to "CCOc1cc(/C=N\N(C)C)cc(/C=N\N(C)C)c1O" on HT29 colon?
A: > 100 µM

Q: // lookup TGI | system=HT29 colon | key= COC(=O)c1ccc2c(c1)CC1(C2)Cc2cc3c(c(C(=O)OC)c2C1)CCCC3 (configuration not stated)
A: > 100 µM

Q: Lab note: need TGI with HT29 colon for entry "CC(C)(C)c1cc(C(=O)/C=C/c2ccc(O)c(O)c2O)cc(C(C)(C)C)c1O" , please look it up.
A: 27.7 µM

Q: Missing value: TGI, HT29 colon, entry "Cc1cc2c(C)c3cc(C)c(N)cc3nc2cc1N" . Fill in?
A: 2.09 µM

Q: Provide the documented TGI with HT29 colon as the system for "COC(=O)[C@@H]1C=C[C@@H](C#N)n2c(=O)n(-c3ccccc3)c(=O)n21"
A: 93.2 µM

====

Test system: HOP-92 NSCLC
assay_procedure: NCI tumour cell line growth inhibition, 48 h
property_measured: TGI

| molecule | result |
| --- | --- |
| Clc1ccccc1/C=C/c1nsc(/C=C/c2ccccc2Cl)n1 | > 100 µM |
| O=C(CCCc1c[nH]c2ccccc12)NC1CC(=O)c2c(Br)sc(Br)c21 (stereo not given) | 40 µM |
| COc1c(OC(C)=O)ccc(/C=C2\N=C(C)OC2=O)c1[N+](=O)[O-] | > 100 µM |
| Cc1c(C(=O)CSc2nc3ccc([N+](=O)[O-])cc3[nH]2)c(=O)n(-c2ccccc2)n1C | > 100 µM |

Q: Give the reported TGI for "C[C@@H](c1ccc2nccn2c1)n1nnc2ncc(-c3cnn(C)c3)nc21" (system: HOP-92 NSCLC).
A: > 100 µM

====

Tested on: PC-3 prostate
assay_procedure: NCI tumour cell line growth inhibition, 48 h
property_measured: TGI

// worked examples, TGI included
| compound | result |
| --- | --- |
| CCCCCCCCCCCCCCCC(=O)ON1C(=S)NC(C)(c2ccccc2)C1=S (stereo not given) | > 100 µM |
| CC[C@@H](CCCC[C@@H]1CC[C@H]2CC(=O)C[C@@H]12)OC | > 100 µM |
| NCC(O)CNCC/C=C\C/C=C\C/C=C\C/C=C\C/C=C\C/C=C\CCCCC/C=C\CCNCC(O)CN (stereo not given) | 3.49 µM |
| CN(C)CCN1C(=O)CC[C@@]2(C)C1=CC[C@@H]1[C@@H]2CC[C@@]2(C)[C@H]1CC[C@]2(C)O | > 100 µM |

Q: Query for PC-3 prostate: what TGI does the record show for "O=C(Nc1n[nH]c2nc(-c3ccco3)c(Br)cc12)C1CC1" ?
A: > 25 µM

====

Test system: OVCAR-5 ovarian
assay_procedure: NCI tumour cell line growth inhibition, 48 h
property_measured: TGI

Record excerpt, results attached:
| molecule | result |
| --- | --- |
| C[C@H]1[C@H](OC(=O)CCC(=O)O)O[C@@H]2O[C@]3(C)CC[C@H]4[C@H](C)CC[C@@H]1[C@@]24OO3 | 20.5 µM |
| O=[N+]([O-])c1ccc(Sc2ncccn2)c([N+](=O)[O-])c1 | 19.8 µM |
| Cc1c(C(=O)CSc2nc3ccc([N+](=O)[O-])cc3[nH]2)c(=O)n(-c2ccccc2)n1C | > 100 µM |
| CCOC(=O)c1cccc(=O)c(C(=O)OCC)c1 | > 100 µM |
| O=C1NCC2(CCNCC2)N1c1ccccc1 | > 100 µM |
| COC(=O)[C@@H]1C=C[C@@H](C#N)n2c(=O)n(-c3ccccc3)c(=O)n21 | > 100 µM |
| OB([O][Hg][c]1ccccc1)[O][Hg][c]1ccccc1 | 3.33 µM |
| CCCCCCCCCCCCCCCCCCNC(=O)[C@H]1CSC(c2ccc(OC)c(F)c2)N1 (some centres not stated) | > 33.4 µM |
| Cc1cccc(/C=N/NC(=S)NCc2ccccn2)n1 | > 100 µM |
| CCCCN(CCCC)C(=O)C(=O)CC(=O)c1ccc(Br)cc1 | > 100 µM |

# context switch: different molecule, same TGI
Q: What value of TGI has been recorded for this entry: "Cc1ccc(-c2c(C#N)c(N)nc(N3CCOCC3)c2C#N)o1"
A: > 100 µM

====

System: NCI/ADR-RES ovarian
assay_procedure: NCI tumour cell line growth inhibition, 48 h
property_measured: TGI

Take a look at these entries with their results.
| compound | TGI |
| --- | --- |
| COC(=O)c1ccc2c(c1)CC1(C2)Cc2cc3c(c(C(=O)OC)c2C1)CCCC3 (stereo unspecified) | > 100 µM |
| CCC1(OC(=O)CN2CCN(CCO)CC2)C(=O)OCc2c1cc1n(c2=O)Cc2cc3ccccc3nc2-1 (stereo unspecified) | 7.99 µM |
| COc1cccc(NC(=O)c2sc3nc4c(cc3c2N)CCCC4)c1 | > 100 µM |
| O=C1C=C[C@]2(C[C@@H](c3cccc(C(F)(F)F)c3)O[C@@H](c3cccc(C(F)(F)F)c3)O2)O1 | 6.62 µM |

Q: Quick check: TGI of "O=C1CC(=O)N(C2CCCCC2)C(=O)N1c1ccccc1S(=O)(=O)Oc1ccccc1" ?
A: > 100 µM

Q: Return reported TGI; argument: "CCOC(=O)c1cnc(SCc2ccc(Cl)c(Cl)c2)nc1N1CC1"
A: 8.72 µM

Q: Look up TGI for this compound: "CN1CCN(c2nc3ccccc3nc2C(=O)c2ccc(Cl)cc2)CC1"
A: > 100 µM

Q: Look up TGI for this compound: CCCCCCCCCCCCCCCCCCNC(=O)[C@H]1CSC(c2ccc(OC)c(F)c2)N1 (stereo partly specified)
A: 6.22 µM

Q: Could you tell me which TGI is on file for CC(Cc1ccc(Cl)cc1Cl)NO (stereo unspecified) ?
A: > 100 µM

Q: Param item = "CC(C)Nc1[nH]c(C(=O)c2ccccc2)c(N)c1C(=S)Nc1ccccc1" ; retrieve measured TGI.
A: > 100 µM

Q: What value of measured TGI is listed for Cc1ccc(S(=O)(=O)NC(=O)NC(CO)C(=O)O)cc1 (stereo unspecified) ?
A: > 100 µM

Q: Fill blank: measured TGI of the compound "Cc1cc2nc(N3C(=O)/C(=C/c4cccc([N+](=O)[O-])c4)N=C3c3ccccc3)sc2cc1C" is ____.
A: > 100 µM

====

Entries and their TGI values follow.
Test system: HOP-62 NSCLC
assay_procedure: NCI tumour cell line growth inhibition, 48 h

Some entries whose results are on file:
| molecule | experimental_system | result |
| --- | --- | --- |
| O=[N+]([O-])c1cccc(N=C2c3ccccc3CN2c2cccc([N+](=O)[O-])c2)c1 | HOP-62 NSCLC | > 100 µM |
| ClC(=Nc1cccc2ccccc12)N(c1ccccc1)c1ccccc1 | HOP-62 NSCLC | > 100 µM |
| O=C(O)c1cccc(S(=O)(=O)NN2C(=O)CSC2c2ccccc2)c1 (stereo unspecified) | HOP-62 NSCLC | > 100 µM |
| CCOC(=O)N1CCN(Cc2cc(=O)n3cc(C)ccc3n2)CC1 | HOP-62 NSCLC | > 100 µM |
| O=C1C=C[C@]2(C[C@@H](c3cccc(C(F)(F)F)c3)O[C@@H](c3cccc(C(F)(F)F)c3)O2)O1 | HOP-62 NSCLC | 18.2 µM |
| Nc1ccn(C=C=CCO)c(=O)n1 | HOP-62 NSCLC | > 1000 µM |
| CC(=O)OC1/C(=C/c2ccc([N+](=O)[O-])cc2)C[C@H]2[C@@H]3CC=C4C[C@@H](OC(C)=O)CC[C@]4(C)[C@H]3CC[C@]12C (stereo partly specified) | HOP-62 NSCLC | > 100 µM |
| ClC(Cl)(Cl)C1CCOC1n1nc2ccccc2n1 (stereo unspecified) | HOP-62 NSCLC | > 100 µM |
| CC1=C(C(=O)Nc2ccccc2)C(c2ccc3c(c2)OCO3)C(C(=O)Nc2ccccc2)=C(C)N1 | HOP-62 NSCLC | > 100 µM |
| Cc1nc2c(o1)C(=O)c1ccccc1C2=NC1CCCCC1N (stereo unspecified) | HOP-62 NSCLC | 2.3 µM |

Consider the additional molecule presented here.
Q: Tell me reported TGI for "Cc1nc(-c2ccccc2)c(C)n2c1nc1ccccc12" , tested with HOP-62 NSCLC.
A: > 100 µM
